Where do the numbers come from? From PubChem BioAssay (NCI).

# Protocol description: NCI Yeast Anticancer Drug Screen. Data for the cln2 rad14 strain (AID 165);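 further: 0% = growth equal to vehicle treated cultures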
# Test settings: S. cerevisiae cln2 rad14 strain, at 50.0 µM, stronger effect = higher value
Compounds without any hit were thinned out: in the full panel of roughly 79,000, 15% have a hit.
Measured quantity: growth inhibition (%)
Answer with a number only, understood to be in %.

// solved cases for growth inhibition follow
>  <Compound>
CCc1cc(COC(C)=O)on1

>  <Value reported>
-35.9

$$$$
>  <Compound>
N#C/C(=C\c1cc(Br)cc(Br)c1O)c1ccc([N+](=O)[O-])cc1

>  <Value reported>
17.1

$$$$
>  <Compound>
CC1CN=C(c2ccccn2)C(c2ccccn2)=N1 (configuration not stated)

>  <Value reported>
-1.1

$$$$
>  <Compound>
Clc1ccc(CN2COc3c(ccc4ccccc34)C2)cc1Cl

>  <Value reported>
9.65

$$$$
>  <Compound>
O=C1c2c(ccc3c2CCC3)CC12Cc1cc3c(cc1C2)CCC3

>  <Value reported>
10.9

$$$$
>  <Compound>
Oc1ccccc1C=Nc1ccc(Cl)cc1

>  <Value reported>
-12.7

$$$$
>  <Compound>
CC1C(=NO)C(C)C(c2ccccc2)N(N=O)C1c1ccccc1 (configuration not stated)

>  <Value reported>
3.25

$$$$
>  <Compound>
COc1cc(Br)c(C=Nc2cccc3ccc(OS(=O)(=O)c4ccc([N+](=O)[O-])cc4)cc23)cc1OC

>  <Value reported>
4.3

$$$$
>  <Compound>
O=C(NCc1ccco1)Nc1ccccc1Cl

>  <Value reported>
45.8

$$$$
>  <Compound>
CC(=O)c1cccc(C(C)=O)n1

>  <Value reported>
18.1

$$$$

(Q) Could you tell me which growth inhibition is on file for CC1=C(C)CP(=O)(c2ccccc2)C1 ?
(A) -8.65

(Q) And then CN1CCC2c3c([nH]c4ccccc34)C(C)(C)OC2C1 (configuration not stated) , what is it?
(A) 9.2
